- TARGET OR SYSTEM: GST-Rok (full length) (Bacillus subtilis subsp. subtilis str. …, UniProt O34857 1-191)
- Sequence: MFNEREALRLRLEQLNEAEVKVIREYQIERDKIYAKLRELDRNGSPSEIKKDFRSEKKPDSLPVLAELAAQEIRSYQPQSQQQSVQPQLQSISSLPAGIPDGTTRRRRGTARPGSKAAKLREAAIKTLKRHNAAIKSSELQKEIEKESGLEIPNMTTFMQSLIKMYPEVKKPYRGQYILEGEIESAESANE
- EXPERIMENT NOTES: protein binding microarray; high values mean tight binding
- COND: protein: recombinant; tags: GST (pTH5325, pDEST15-Magic modified); dsDNA, one strand shown
Over roughly 33,000 sequences, “e-score” has its median near -0.037; the highest 2% begin near 0.34. This excerpt belongs to a sample that is enriched for the highest values.
READOUT TYPE: binding signal
The number alone won't do; follow it with the unit.

SEQUENCE ENTRY	binding signal
ATTGTTTA	-0.087 E-score
GATCAATA	0.157 E-score
AGCCTTAG	-0.181 E-score

Hi, could you look up binding signal for each item in my list?
1. TATCAATA
2. TGATGCAA

**Result**
1. 0.343 E-score
2. -0.0283 E-score

Please state binding signal for every sequence in the list that follows.
1. CTACAGGA
2. AATCTCCG
3. ATAGTATG
4. ACTATACG
5. GTTATACA

**Result**
1: -0.04 E-score; 2: 0.0469 E-score; 3: 0.359 E-score; 4: 0.0122 E-score; 5: 0.213 E-score

Could you tell me binding signal for each of these sequences? They are listed below.
1. ATAGTATC
2. AAGCTTGT

**Result**
1: 0.321 E-score; 2: 0.0413 E-score

---

- TARGET OR SYSTEM: GST-Rok (full length) (Bacillus subtilis subsp. subtilis str. …, UniProt O34857 1-191)
- Sequence: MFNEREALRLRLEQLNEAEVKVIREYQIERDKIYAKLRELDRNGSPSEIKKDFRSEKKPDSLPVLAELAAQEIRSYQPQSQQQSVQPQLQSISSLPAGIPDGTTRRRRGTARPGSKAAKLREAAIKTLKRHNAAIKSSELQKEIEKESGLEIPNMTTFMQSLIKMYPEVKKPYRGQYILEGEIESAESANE
- EXPERIMENT NOTES: protein binding microarray; high values mean tight binding
- COND: protein: recombinant; tags: GST (pTH5325, pDEST15-Magic modified); dsDNA, one strand shown
In all, about 33,000 sequences were measured (“e-score”: median about -0.037, highest 2% from about 0.34 on). This is one part of a sample in which the highest values are shown more often than they occur.
READOUT TYPE: binding signal (E-score)
One number for each entry, in E-score.

Some solved cases for reference:
SEQUENCE ENTRY	binding signal (E-score)
ATGCTTCG	-0.00471
ACAGATAT	0.153

State the recorded binding signal for every item in the following list.
1. GGATATAA
2. ACTACTAC

**Result**
1. 0.271
2. 0.4

Take each entry in turn and give its binding signal.
1. ATCGATAA
2. ATCGAAAT
3. TCTTTCCA
4. AGCTACTA
5. CCGTACAA
6. TTAGAAAA
7. ATAGAATC
8. ATTTTAAA

**Result**
[0.332, 0.357, -0.0837, 0.291, 0.188, 0.185, 0.254, 0.126]

Record binding signal per entry; entries follow.
1. GCTTAGAA
2. GACTACTC

**Result**
-0.0146
0.132

Give binding signal for all sequences that follow.
1. GATGGAGA
2. AAGTACAG
3. CTAGAAAC
4. CACTCTCA
5. ATCGATAC
6. CTGGACTA
7. ACTATTAT

**Result**
1. -0.0862
2. 0.272
3. 0.3
4. -0.109
5. 0.213
6. 0.0592
7. 0.386

Parameter requested: binding signal. Apply to each item below.
1. ACTACTCT
2. ATAGAGAT

**Result**
[0.184, 0.0483]

Working through the 4 sequences below one at a time, give binding signal for each.
1. AAAGAAAG
2. CTAAGCAG
3. ACTACAAC
4. ATATCCTA

**Result**
1: 0.132; 2: -0.152; 3: 0.293; 4: 0.36

For every item in the list below, what is its measured binding signal?
1. ACCTACAT
2. CCAAGAAC
3. AGGAATTC
4. ACTACAAT
5. ATAGAAAT
6. ATGTCCGG
7. ATAGAAAC
8. ACATCAAG

**Result**
[0.271, -0.19, -0.159, 0.344, 0.337, -0.00967, 0.288, 0.00272]

Report binding signal for every entry below.
1. AGAGACTA
2. ATACTAGA
3. GACACGAC
4. AACTACAC

**Result**
1: 0.093; 2: 0.349; 3: -0.0441; 4: 0.335

---

- TARGET OR SYSTEM: GST-Rok (full length) (Bacillus subtilis subsp. subtilis str. …, UniProt O34857 1-191)
- Sequence: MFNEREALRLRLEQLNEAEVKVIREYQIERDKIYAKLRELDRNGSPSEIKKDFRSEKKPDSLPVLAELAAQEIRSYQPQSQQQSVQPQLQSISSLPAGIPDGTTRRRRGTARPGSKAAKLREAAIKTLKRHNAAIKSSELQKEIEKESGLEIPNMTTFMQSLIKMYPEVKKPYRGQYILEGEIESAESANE
- EXPERIMENT NOTES: protein binding microarray; high values mean tight binding
- COND: protein: recombinant; tags: GST (pTH5325, pDEST15-Magic modified); dsDNA, one strand shown
In all, about 33,000 sequences were measured (“e-score”: median about -0.037, highest 2% from about 0.34 on). Many of the other results were omitted from the sample, so the highest values are more common in it than they were.
READOUT TYPE: binding signal (E-score)
Numbers only, in E-score.

SEQUENCE ENTRY	binding signal, E-score
AGCTACTG	0.294
GTAGTATA	0.423
AACTACTC	0.381
ACATAACG	0.157
ATTCTACA	0.42

Can you give me binding signal for all of these, one by one?
1. ATTCTATC
2. AGATATCT
3. GTAGTACA
4. CAAGTATA
5. AACTACTG
6. GGACGCTA

**Result**
0.348
0.399
0.236
0.204
0.436
0.000145

Answer for every listed entry: what is its binding signal? The entries follow.
1. TAATATAA
2. ACTGTGGA
3. GTATATAC

**Result**
[0.236, -0.123, 0.432]

Dear colleague, could you send me binding signal for each of the items below? Thanks.
1. ATTCTATA
2. AACTACGG
3. AGATATCA
4. TAATAACA
5. AAGACGTA

**Result**
[0.247, 0.204, 0.127, 0.238, 0.132]

Count: 8. Required value per item: binding signal.
1. CTAGGTCA
2. CTCCCAAC
3. ACATAACT
4. CATCGACA
5. CCCTACTA
6. CCGCGTCG
7. GCATATAC
8. CGTCGCGC

**Result**
-0.0595
-0.0944
0.347
0.0503
-0.0153
0.0351
0.268
0.0557

---

- TARGET OR SYSTEM: GST-Rok (full length) (Bacillus subtilis subsp. subtilis str. …, UniProt O34857 1-191)
- Sequence: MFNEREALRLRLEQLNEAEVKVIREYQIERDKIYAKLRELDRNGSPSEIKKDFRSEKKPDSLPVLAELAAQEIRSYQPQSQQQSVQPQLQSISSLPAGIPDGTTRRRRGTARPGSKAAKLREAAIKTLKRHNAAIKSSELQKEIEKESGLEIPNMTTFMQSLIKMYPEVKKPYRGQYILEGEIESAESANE
- EXPERIMENT NOTES: protein binding microarray; Rok is a gene silencer of Bacillus subtilis; high values mean tight binding
- COND: protein: recombinant; tags: GST (pTH5325, pDEST15-Magic modified); dsDNA, one strand shown
Over roughly 33,000 sequences, “e-score” has its median near -0.037; the highest 2% begin near 0.34. What follows is part of a selection rich in the highest values, with near analogues and random picks from the rest.
Mark 1 (yes) only when binding signal stays strictly below 0.2 E-score. Values equal to the cut-off are 0 (no).

Solved entries:
SEQUENCE ENTRY	GROUP
CCAAACTC	1 (yes)
GTAGCTAA	0 (no)
ATAGGTAA	0 (no)
TTAGCTAA	1 (yes)
TAAATAAA	0 (no)
ATAGCTAC	0 (no)
GAAAACTA	0 (no)
AAAATATC	0 (no)

**Query** Lab note: binding signal threshold 0.2 E-score. Does this sequence come in strictly under it? ACTATACA
**Result** 0 (no)

**Query** binding signal under 0.2 E-score? Item: ATAGGTAC
**Result** 0 (no)

**Query** Dear colleague, could you confirm whether binding signal of AAAATATA falls below 0.2 E-score? Thanks.
**Result** 0 (no)

**Query** hey, is binding signal for ACAATATA lower than 0.2 E-score or not?
**Result** 0 (no)
